Assay Remarks: Confirmation screen for delayed death inhibitors of the malarial parasite plastid, 48 hour incubation; further: nearly all actives have a fitted effect of over 65% in size
Measurement Conditions: P. falciparum-infected erythrocytes, luciferase growth; series mostly up to 28.7 µM
Text: The goal of this screen is to discover new antimalarial compounds that act by inhibiting the development of the apicoplast in the malarial parasite Plasmodium falciparum. The biochemical processes that make this organelle essential for erythrocytic stage parasites are not well understood. […] Growth inhibition is detected by a decrease in luciferase activity. […]
About 1,200 (52%) of roughly 2,300 compounds were called active. Another 34% or so got no clear call; they are omitted. The call rests on the fitted dose curve; in most records, active means well fitted inhibition curve with a large enough effect; inconclusive means small, poorly fitted or top-dose-only effect, or effect the other way; inactive means no such curve, though single readings can be large or run the other way. So high a share suggests a set chosen from earlier hits. Some of the results follow.
Your response should consist of one outcome taken from active, inactive

Answered examples (2):
Compound	Group Label
Cc1cccc(N(Cc2ccccc2)C(=O)CSC(C)C(=O)Nc2cc(C)on2)c1 (stereo unspecified)	active
CCc1ccc(OCCNC(=O)c2ccccc2SCc2ccccc2)cc1	active

Inquiry: What classification did Cc1ccc(NC(=O)c2nnn(CC(=O)Nc3ccc4c(c3)OCO4)c2N)cc1C end up with in this test?
Reply text: inactive

Inquiry: What classification did Cc1cc(=O)oc2c3c(cc(OCC(=O)Nc4cccnc4)c12)OC(C)(C)CC3 end up with in this test?
Reply text: active

Inquiry: What classification did COC(=O)c1ccc(CSc2ccccc2C)o1 end up with in this test?
Reply text: inactive

Inquiry: What classification did CC[N+](CC)(CC)CCCCOc1ccc2c(c1)C(=O)c1cc(OCCCC[N+](CC)(CC)CC)ccc1-2 end up with in this test?
Reply text: active

Inquiry: What classification did Cc1c(O)ccc(C(=O)CN2CCN(Cc3ccc4c(c3)OCO4)CC2)c1O end up with in this test?
Reply text: active

Inquiry: What classification did Clc1ccc2nnnc(-c3ccccc3)c2c1 end up with in this test?
Reply text: active

Inquiry: What classification did CCOC(=O)c1c(NC(=O)CSc2c[nH]c3ccccc23)sc2c1CCCC2 end up with in this test?
Reply text: active

Inquiry: What classification did Cc1ccc(-c2csc(SCC(=O)c3c(N)n(C4CC4)c(=O)[nH]c3=O)n2)cc1 end up with in this test?
Reply text: inactive

Inquiry: What classification did Cn1c(=O)n(C)c2cc(NC(=O)CCl)ccc21 end up with in this test?
Reply text: active

* * *

Assay Remarks: Confirmation screen for delayed death inhibitors of the malarial parasite plastid, 48 hour incubation; further: nearly all actives have a fitted effect of over 65% in size; further: potency means the concentration at half of the fitted maximal effect
Measurement Conditions: P. falciparum-infected erythrocytes, luciferase growth; series mostly up to 28.7 µM
The whole screen tested about 2,300 compounds, of which about 1,200 (52%) were called active. About 34% were inconclusive and are not listed. So high a share suggests a set chosen from earlier hits. The list shows a part of the results.
Reported Property: Potency

Compound	Potency
CCn1c2ccccc2c2cc(/C=N/n3cn[nH]c3=S)ccc21	12.6 µM (active)
COc1ccc(CN(C(=O)/C=C/C(=O)c2ccc(OC)cc2O)C(C(=O)NC2CCCCC2)c2ccncc2)cc1 (stereo not drawn)	7.94 µM (active)

Now turn to the next compound.
Entry O=C(NC1CCCCC1)C(c1ccncc1)N(Cc1ccccc1)C(=O)c1ccc(-c2ccccc2)[nH]1 (stereo not drawn) ; Potency = 4.47 µM (active)

* * *

Assay Remarks: Confirmation screen for delayed death inhibitors of the malarial parasite plastid, 48 hour incubation; further: nearly all actives have a fitted effect of over 65% in size
Measurement Conditions: P. falciparum-infected erythrocytes, luciferase growth; series mostly up to 28.7 µM
In all, about 2,300 compounds went through this assay and about 1,200 (52%) were called active. Roughly 34% stayed inconclusive and do not appear here. Calls come from the whole dose curve; as a rule, active = well fitted inhibition curve with a large enough effect; inconclusive = small, poorly fitted or top-dose-only effect, or effect the other way; inactive = no such curve, though single readings can be large or run the other way. So high a share suggests a set chosen from earlier hits. Some of the results follow.
Your response should consist of one outcome taken from active, inactive

Compound	Group Label
CCOc1ccc2c(c1)C(N(CCN1CCOCC1)C(=O)Nc1ccccc1)CC(C)(C)O2 (stereo not given)	active

Inquiry: What classification did CC(C)Cc1csc(NC(=O)C(C)C)c1C(=O)O end up with in this test?
Reply text: inactive

Inquiry: What classification did Cc1cccc(C)c1N1CCN(C(=O)c2ccc3c(c2)OCO3)CC1 end up with in this test?
Reply text: active

Inquiry: What classification did Cn1c(=O)c(=O)n(C)c2cc(N3CCCCC3)c(NS(=O)(=O)c3ccc(Br)cc3)cc21 end up with in this test?
Reply text: active

Inquiry: What classification did O=C(Nn1c(-c2ccccc2)nc2ccccc2c1=O)c1ccco1 end up with in this test?
Reply text: inactive

* * *

Assay Remarks: Confirmation screen for delayed death inhibitors of the malarial parasite plastid, 48 hour incubation; further: nearly all actives have a fitted effect of over 65% in size
Measurement Conditions: P. falciparum-infected erythrocytes, luciferase growth; series mostly up to 28.7 µM
Screen size: about 2,300 compounds; about 1,200 (52%) were called active. Another 34% or so got no clear call; they are omitted. Calls follow the shape of the dose curve; as a rule, active = well fitted inhibition curve with a large enough effect; inconclusive = small, poorly fitted or top-dose-only effect, or effect the other way; inactive = no such curve, though single readings can be large or run the other way. So high a share suggests a set chosen from earlier hits. Some of the results follow.
Your response should consist of one outcome taken from label 1 = active, label 0 = inactive

Compound	Group Label
Cc1cc(C(=O)NC2CCCc3c2cnn3-c2cccc(C)c2C)no1 (stereo unspecified)	label 0

Inquiry: What classification did Cc1ccc(Nc2cc(C)c3ccc(O)cc3n2)cc1C end up with in this test?
Reply text: label 1

Inquiry: What classification did Cn1nc(CC(=O)Nc2ncc(Br)s2)c2ccccc2c1=O end up with in this test?
Reply text: label 1

Inquiry: What classification did COc1ccccc1N1CCN(C(=O)c2noc(C(C)C)c2[N+](=O)[O-])CC1 end up with in this test?
Reply text: label 1

Inquiry: What classification did Cc1ccc2c(CN(C)Cc3cccc(Cl)c3)cc(=O)oc2c1C end up with in this test?
Reply text: label 0

* * *

Assay Remarks: Confirmation screen for delayed death inhibitors of the malarial parasite plastid, 48 hour incubation; further: nearly all actives have a fitted effect of over 65% in size
Measurement Conditions: P. falciparum-infected erythrocytes, luciferase growth; series mostly up to 28.7 µM
In all, about 2,300 compounds went through this assay and about 1,200 (52%) were called active. Roughly 34% stayed inconclusive and do not appear here. The call rests on the fitted dose curve; in most records, active means well fitted inhibition curve with a large enough effect; inconclusive means small, poorly fitted or top-dose-only effect, or effect the other way; inactive means no such curve, though single readings can be large or run the other way. The set was probably picked from earlier hits. The list shows a part of the results.
Your response should consist of one outcome taken from 1 for active, 0 for inactive

Answered examples (6):
Compound	Group Label
CCc1nc(SCC(=O)Nc2ccc(N(C)C)cc2)n[nH]1	0
Cc1c(C)n2c(SCC(=O)Nc3ccc4c(c3)OCCO4)nnc2[nH]c1=O	1
COC(=O)c1ccc(Sc2nnnn2-c2ccccc2)c([N+](=O)[O-])c1	1
COc1cccc2sc(Nc3nnc(-c4ccccc4Cl)o3)nc12	1
COc1ccc(-c2c(-c3cc(OC)cc(OC)c3)n(C)c3ccc(-c4ccc5[nH]ccc5c4)cc23)cc1	1
O=C(CSc1ccc(-c2cccnc2)nn1)Nc1ccccc1C(F)(F)F	0

Inquiry: What classification did COc1ccc(C(=O)NC2CC2)cc1OC1CCN(C/C=C/c2ccccc2)CC1 end up with in this test?
Reply text: 1

Inquiry: What classification did CCN(CC)S(=O)(=O)c1ccc(N2CCOCC2)c(NC(=O)C2CSC3(C)CCC(=O)N23)c1 (stereo not given) end up with in this test?
Reply text: 1

Inquiry: What classification did COc1ccc(C)c2sc(NC(=O)CCS(=O)(=O)c3ccccc3)nc12 end up with in this test?
Reply text: 0

Inquiry: What classification did COc1cccc(NC(=O)CSc2nc3n[nH]c(C)c3c(=N)n2-c2cccc(OC)c2)c1 end up with in this test?
Reply text: 1

* * *

Assay Remarks: Confirmation screen for delayed death inhibitors of the malarial parasite plastid, 48 hour incubation; further: nearly all actives have a fitted effect of over 65% in size; further: potency means the concentration at half of the fitted maximal effect
Measurement Conditions: P. falciparum-infected erythrocytes, luciferase growth; series mostly up to 28.7 µM
The whole screen tested about 2,300 compounds, of which about 1,200 (52%) were called active. Roughly 34% stayed inconclusive and do not appear here. The set was probably picked from earlier hits. This is one part of the list.
Reported Property: Potency

# count of solved cases: 5
Molecule	Result
Cc1ccc(Nc2cc(C)nc3ccc(C)cc23)cc1	10 µM (active)
CN(C(=O)CN1C(=O)CCSc2ccc(S(=O)(=O)N3CCCC3)cc21)c1ccccc1	11.2 µM (active)
Cc1ccc(-n2cc(CN3CCC(CO)(Cc4cccc(C(F)(F)F)c4)CC3)cn2)cc1	7.94 µM (active)
O=C(NCc1ccccn1)c1cc(-c2ccc(-c3ccccc3)cc2)nc2ccccc12	15.8 µM (active)
COc1cc(/C=C(/C#N)C(=O)NCc2ccccc2)cc(OC)c1OC	14.1 µM (active)

Entry CCN(CC)Cc1cc2[nH]c3c4ccc(Cl)cc4ncc3c2cc1OC ; Potency = 0.178 µM (active)

Entry O=C(C[C@@H]1C/C=C\CC[C@@H](Cc2ccc(F)cc2)C(=O)OC[C@@H]2CCCN2C1=O)NCCO ; Potency = 12.6 µM (active)

Entry COC(=O)c1ccc(NC(=O)c2cccc(NC(=O)c3ccccc3)c2)cc1 ; Potency = 8.91 µM (active)

Entry CCOc1ccc(S(=O)(=O)Nc2cc(S(=O)(=O)N(CC)CC)ccc2N2CCCC2)cc1 ; Potency = 2.51 µM (active)

Entry CNC(=S)N(CCc1c(C)[nH]c2ccc(C)cc12)Cc1cc(OC)c(OC)c(OC)c1 ; Potency = 12.6 µM (active)

Entry Cc1ccc(NC(=O)C(=Cc2ccc(C(=O)O)cc2)C(=O)Nc2ccc(C)cc2C)c(C)c1 ; Potency = 10 µM (active)

Entry Cn1nc(C(F)(F)F)c(C(=O)Nc2ccc(F)cc2F)c1Sc1ccc(C(F)(F)F)cc1 ; Potency = 12.6 µM (active)

Entry COc1ccc(-n2c(=O)/c(=C\c3cccs3)s/c2=C(/C#N)C(=O)N2CCN(C)CC2)cc1 ; Potency = inactive

Entry Nc1nc(CCl)nc(N(c2ccccc2)c2ccccc2)n1 ; Potency = 8.91 µM (active)

Entry O=C(N/N=C/c1ccc([N+](=O)[O-])cc1)c1cccc(N2CCCC2=O)c1 ; Potency = 11.2 µM (active)

Entry O=C(C[n+]1cccc(CNC(=O)c2ccc(OC(F)F)cc2)c1)Nc1ccc(SC(F)F)cc1 ; Potency = 5.62 µM (active)

Entry CC(SC#N)C(=O)C12CC3CC(CC(C3)C1)C2 (stereo not given) ; Potency = 8.91 µM (active)

Entry COC(=O)c1ccc(CNCC(=O)Nc2ccc(C(=O)OC)cc2)cc1 ; Potency = inactive

Entry Cc1nc2scc(C)n2c(=O)c1S(=O)(=O)NCc1ccccc1Cl ; Potency = inactive

Entry COC(=O)c1ccc(C2N=C(c3cccs3)CC(c3ccccc3O)N2)cc1 (stereo not given) ; Potency = 8.91 µM (active)

Entry CC(C)(C)c1nc(SCC(=O)Nc2nc3c(s2)CCCC3)c2ccccc2n1 ; Potency = 4.47 µM (active)

Entry COc1cc(C(=O)Nc2ccc(Nc3ccccc3)cc2)cc(OC)c1OC ; Potency = 11.2 µM (active)

Entry CCn1c(=O)c(CCC(=O)N2CCOCC2)c(C)c2c(C)nn(-c3ccccc3)c21 ; Potency = 14.1 µM (active)

Entry CC(C)(C)c1nc(SCC(=O)Nc2ccc(N3CCOCC3)cc2)c2ccccc2n1 ; Potency = 11.2 µM (active)
